system: MOLT-4; assay: NCI tumour cell line growth inhibition, 48 h
Calls of active or inactive are those of the source. Rule as the data show it: active = GI50 up to about 1.1 µM and inactive = higher.

| structure as smiles | GI50 |
| --- | --- |
| O=C(/C=C/c1ccccc1)Oc1cccc2cccnc12 | 3.2 µM (inactive) |
| CC(CO)(CO)/N=C/c1cc(I)cc(I)c1O | 11.5 µM (inactive) |
| O=C(NCCCNCCCCNCCCNC(=O)c1cc(-c2ccccc2)nc2ccccc12)c1cc(-c2ccccc2)nc2ccccc12 | 1.9 µM (inactive) |
| CN(CC(=O)O)S(=O)(=O)c1ccc2ccccc2c1 | > 100 µM (inactive) |

====

system: RXF 393; experiment: NCI tumour cell line growth inhibition, 48 h
Calls of active or inactive are those of the source. Cut-off read from the data, not from the text of the source: active = GI50 up to about 1.1 µM and inactive = higher.
Labels: active, inactive

| compound | label |
| --- | --- |
| COc1ccc2nc3c([N+](=O)[O-])ccc(NCCCN(C)C)c3c(N)c2c1 | inactive |
| NC1=NN(c2ccccc2)C2(c3ccncc3C(=O)O)C1C(N)=NN2c1ccccc1 (stereo not drawn) | inactive |
| COc1cc2c(c(N)c1OC)C(=O)/C(=C/c1cc(C)c(O)c(C)c1)C2 | active |
| CC1CC(=O)Nc2ccccc2N1C(=O)C1CC1 (stereo not drawn) | inactive |
| OC(c1cc(C23CC4CC(CC(C4)C2)C3)nc2c(Cl)cc(Cl)cc12)C1CCCCN1 (stereo not drawn) | inactive |
| COc1ccc2c(c1)[n+]([O-])c(C(=O)C/C(=N/NC(=O)c1ccccc1O)C(=O)Nc1ccc(Cl)c(C(F)(F)F)c1)c(C)[n+]2[O-] | inactive |
| CC1=C(C(=O)CC(=O)C(=O)Nc2ccc(Cl)cc2C)Sc2ccccc2N1 | inactive |
| Nc1ccc(Nc2c3ccccc3nc3ccccc23)cc1 | inactive |
| CN(C)CCNC(=O)c1cccc2[nH]c(-c3cccnc3)nc12 | inactive |
| Cc1nc2nnnn2c2c1C(=O)Nc1ccccc1N2 | inactive |
| CC(CO)(CO)/N=C/c1cc(I)cc(I)c1O | inactive |
| Cc1ccc(C)n1-c1ccccc1C1C=CN(C(=O)OC(C)(C)C)C=C1 | inactive |
| Nc1ccccc1SCc1csc(-c2ccc(Cl)cc2)n1 | inactive |

====

system: NCI-H226; assay: NCI tumour cell line growth inhibition, 48 h
Activity calls are given as the source filed them. No stated cut-off is given here; in the data, active = GI50 up to about 1.1 µM and inactive = higher.

| compound | subject of test | GI50 |
| --- | --- | --- |
| CCN(CC)CC(O)c1ccc2ccc3ccccc3c2c1 (stereo unspecified) | NCI-H226 | 13.6 µM (inactive) |
| Cc1nc2cccc(F)c2c(=O)n1-c1nnc(C2CC2)s1 | NCI-H226 | > 10 µM (inactive) |
| O=C(Oc1c(Cl)cc(C2(c3cc(Cl)c(OC(=O)c4ccccc4)c(Cl)c3)CCCCC2)cc1Cl)c1ccccc1 | NCI-H226 | 16.3 µM (inactive) |
| CC(CO)(CO)/N=C/c1cc(I)cc(I)c1O | NCI-H226 | 16.4 µM (inactive) |
| O=C(O)COc1ccc(C(=O)/C(SS/C(C(=O)c2ccc(OCC(=O)O)c(Cl)c2Cl)=C2\C=C(c3ccc(F)cc3)SS2)=C2/C=C(c3ccc(F)cc3)SS2)c(Cl)c1Cl | NCI-H226 | 15.1 µM (inactive) |
| O=C1CCCCCCC2=C1C(Sc1ccccc1)CC2 (stereo unspecified) | NCI-H226 | 29.5 µM (inactive) |
| Nc1ccc2c(SCc3ccc([N+](=O)[O-])cc3)c3ccccc3nc2c1 | NCI-H226 | 18.7 µM (inactive) |
| C/C(=C\C(C[C@](C)(O)C(O)CCC#C[Si](C)(C)C)S(=O)(=O)c1ccccc1)CC/C=C/CO[Si](C)(C)C(C)(C)C (stereo partly specified) | NCI-H226 | 22.1 µM (inactive) |
| OCCN(/N=C\c1ccc2ccccc2c1)C1=NCCN1 | NCI-H226 | 12.9 µM (inactive) |
| COC(=O)/C(=N\NC(N)=S)C(C#N)c1ccccc1 (stereo unspecified) | NCI-H226 | > 100 µM (inactive) |
| NS(=O)(=O)c1cc2c(cc1Cl)NCNS2(=O)=O [HYDROCHLOROTHIAZIDE] | NCI-H226 | > 100 µM (inactive) |
| CCc1ccc(/C=C/C(=O)C2CN(CC)CCC2(O)/C=C/c2ccc(CC)cc2)cc1 (stereo unspecified) | NCI-H226 | 4.41 µM (inactive) |
| CCN(CC)c1ccc(/C=C/C2=NN(c3cccc(S(=O)(=O)O)c3)C3(C2)C(Cl)C(=O)N3c2nc3ccccc3s2)cc1 (stereo unspecified) | NCI-H226 | 13.1 µM (inactive) |
| COc1ccc(/C=C/C(=O)c2cccc(C(=O)/C=C/c3ccc(OC)c(OC)c3)n2)cc1OC | NCI-H226 | > 100 µM (inactive) |
| CN(C)CCNC(=O)c1cc([N+](=O)[O-])cn1C | NCI-H226 | > 100 µM (inactive) |
| C=C1C[C@H](O)[C@H](Br)C(C)(C)C12CCC(C)(Cl)C(Br)C2 (stereo partly specified) | NCI-H226 | 2.27 µM (inactive) |
| O=C1CCN/C(=N\C(=O)C(F)(F)F)N1CCc1c[nH]c2ccccc12 | NCI-H226 | > 100 µM (inactive) |
| COc1cc2c(c(N)c1OC)C(=O)/C(=C/c1cc(C)c(O)c(C)c1)C2 | NCI-H226 | 4.19 µM (inactive) |
| CN(C)c1ccc(/C=C/c2cc(-c3ccccc3)[n+](C)n2-c2ccccc2)cc1 | NCI-H226 | 0.138 µM (active) |
| COC(=O)C12CCC(C)(C)CC1C1=CCC3C4(C)CC(O)C(O)C(C)(C(=O)OC)C4CCC3(C)C1(CO)CC2 (stereo unspecified) | NCI-H226 | 16.9 µM (inactive) |
| CC(C)[Si](OC/C(=C/COC(C)(C)C)[C@H]1CC=C(C(=O)c2ccccc2N2CN(C)C(=O)N(C)C2)C1)(C(C)C)C(C)C | NCI-H226 | 14.6 µM (inactive) |

====

system: DMS-273; test: NCI tumour cell line growth inhibition, 48 h
Calls of active or inactive are those of the source. No stated cut-off is given here; in the data, active = GI50 up to about 1.1 µM and inactive = higher.
Attribute: GI50
assay endpoint: GI50

| molecule | subject of test | result value |
| --- | --- | --- |
| Nc1nc(SCCC/C=C/I)nc2c1ncn2C1OC(COP(=O)(O)O)C(O)C1O (stereo not drawn) | DMS-273 | > 100 µM (inactive) |
| CC1(C)O[C@@H](CCl)C[C@H](C#N)O1 | DMS-273 | > 100 µM (inactive) |
| Cc1ccc(NC(=O)C2C(=O)N(c3ccc(C)cc3)C(=O)/C2=N\NC(N)=S)cc1 (stereo not drawn) | DMS-273 | > 100 µM (inactive) |

====

test system: SNB-19; assay: NCI tumour cell line growth inhibition, 48 h
The source made the active and inactive calls. No stated cut-off is given here; in the data, active = GI50 up to about 1.1 µM and inactive = higher.
Labels: active, inactive

| molecule | subject of test | label |
| --- | --- | --- |
| Clc1cccc(Cl)c1C1SCc2nc3ccccc3n21 (configuration not stated) | SNB-19 | inactive |
| N#CCCN(CCC#N)c1ccc(/C=C2\SC(=S)NC2=O)cc1 | SNB-19 | inactive |
| Cc1ccc(CC(Cc2ccccc2C)C(=O)O)c(C(=O)O)c1 (configuration not stated) | SNB-19 | inactive |
| ClC1=NSSC1(Cl)Cl | SNB-19 | inactive |
| O=C1Cc2c([nH]c3ccc([N+](=O)[O-])cc23)-c2ccccc2N1 | SNB-19 | active |
| Nc1ccccc1SCc1csc(-c2ccc(Cl)cc2)n1 | SNB-19 | inactive |
| Cc1cc(NS(=O)(=O)c2ccc(NC(=O)c3ccc4nc5ccccc5c(Nc5ccc(S(=O)(=O)Nc6cc(C)on6)cc5)c4c3)cc2)no1 | SNB-19 | inactive |
| Brc1cc(C2OCCCO2)ccc1OCc1ccccc1 | SNB-19 | inactive |
| O=Cc1cn(CCCCCCCCCCCCn2cc(C=O)c3ccccc32)c2ccccc12 | SNB-19 | inactive |
| COc1ccc2cc(CN3CCC(C4CCNCC4)CC3)ccc2c1 | SNB-19 | inactive |
| CCN(CC)CC(O)c1ccc2ccc3ccccc3c2c1 (configuration not stated) | SNB-19 | inactive |
| COC(=O)[C@@]12OC[C@]34[C@H]([C@@H](O)[C@@H]1O)[C@@]1(C)CC(=O)C(O)=C(C)[C@@H]1C[C@H]3OC(=O)[C@H](OC(=O)/C=C(\C)C(C)C)[C@@H]24 [BRUCEANTIN] | SNB-19 | active |
| CCOC(=O)CCc1cc(=O)oc2cc(O)cc(O)c12 | SNB-19 | inactive |
| Nc1nc(SCCC/C=C/I)nc2c1ncn2C1OC(COP(=O)(O)O)C(O)C1O (configuration not stated) | SNB-19 | inactive |
| CC(C)(C)CC(C)(C)c1ccc(O)c(C[N+](C)(C)[O-])c1 | SNB-19 | inactive |
| Nc1ccc2c(SCc3ccc([N+](=O)[O-])cc3)c3ccccc3nc2c1 | SNB-19 | inactive |
| [O-][n+]1c(-c2ccccc2)oc2ccccc21 | SNB-19 | inactive |
| Clc1ccc(OCc2nnc(CCCCCCCCc3nnc(COc4ccc(Cl)cc4)n3Nc3ccccc3)n2Nc2ccccc2)cc1 | SNB-19 | inactive |
| O=C(CCN1CCCCC1)C(=Cc1ccccc1)C(=O)CCN1CCCCC1 | SNB-19 | inactive |
| O=[N+]([O-])c1c(O)c2nonc2c2nn(-c3ccccc3)nc12 | SNB-19 | inactive |
| O=[N+]([O-])c1ccc(/C=C/c2cc(-c3ccccc3)nc3ccc4ccccc4c23)cc1 | SNB-19 | inactive |
| O=C(O)c1cc(/N=N/c2ccc([As](=O)(O)O)cc2)ccc1O | SNB-19 | inactive |
| COc1ccc(N2C(=O)CC(c3c[nH]c4ccccc34)C2=O)cc1 (configuration not stated) | SNB-19 | inactive |
| COc1ccc(-c2c(N)[n+]([O-])c3cc(C)c(C)cc3[n+]2[O-])cc1OC | SNB-19 | inactive |
| CCN(CC)CC1CCCCN1CC(=O)N1c2cc(Cl)ccc2NC(=O)CC1C (configuration not stated) | SNB-19 | inactive |
| O=C(O)c1ccccc1/C=N\N=C1NCCCCN1 | SNB-19 | inactive |
| N#Cc1cccc(N2C(=O)C3C4C=CC(C3C2=O)C2C(=O)N(c3cccc(C#N)c3)C(=O)C42)c1 (configuration not stated) | SNB-19 | inactive |
